Ref: patent US10962528B2

Kindly supply the reported Ex/Em1, excitation values for the records listed here.
- Test name: Steady state fluorescence spectra and quantum yield
- Format: physicochemical
- Assay conditions: in complex with biliverdin, red excitation

q: What value of measured Ex/Em1, excitation is listed for SFP-V71E: monomeric SFP variant V71E, SEQ ID NO:2 (protein) FIKPGRCPKPAVQEDFDAARYLGVWYDIQRLPNKFQKGECATATYSLSPGEGFSVFNRERLANGTIKSVIGSAIAEDPCEPAKLQFFHENAAPVPYWVLSTDYDNYALVYSCINLGASHAAYASIVSRQPTLPEETIKKLQGTMSSFGVGVDTLLTTNQDAAYCSAMNQ ?
a: 600 nm

q: Entry under review: SFP-A137E: monomeric SFP variant A137E, SEQ ID NO:4 (protein) FIKPGRCPKPAVQEDFDAARYLGVWYDIQRLPNKFQKGECATATYSLSPGVGFSVFNRERLANGTIKSVIGSAIAEDPCEPAKLQFFHENAAPVPYWVLSTDYDNYALVYSCINLGESHAAYASIVSRQPTLPEETIKKLQGTMSSFGVGVDTLLTTNQDAAYCSAMNQ . Reported Ex/Em1, excitation?
a: 580 nm

q: Dear colleague, I am looking for the recorded Ex/Em1, excitation of the following molecule: SFP-VP95insGG: L135E monoSFP extended with glycine residues at position 95, SEQ ID NO:6 (protein) MFIKPGRCPKPAVQEDFDAARYLGVWYDIQRLPNKFQKGECATATYSLSPGVGFSVFNRERLANGTIKSVIGSAIAEDPCEPAKLQFFHENAAPGGVPYWVLSTDYDNYALVYSCINSFEGASHAAYASIVSRQPTLPEETIKKLQGTMSSFGVGVDTLLTTNQDAAYCSAMNQ
a: 570 nm
